Entry source: PubChem BioAssay

inhibition: recorded values
test: endothelial E-selectin expression blockers – imaging, HUVEC, immunofluorescence, MLSMR starter and 10KST1 sets, primary screen (AID 487); details: HUVEC TNFalpha-induced E-selectin immunofluorescence imaging, at 2 µM; hits give high values;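 also: signal is fraction of cell area covered by stained E-selectin grains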
Quantity Name: inhibition (%)

Molecule: CC1(C)C(c2ccccc2)=NC(c2cccnc2)N1O (stereo unspecified)
Quantity Name: inhibition
Unit Descriptor: %
Quantitative Result: 17.6
--
Molecule: COc1ccc(Cn2c(O)c(C=NCCN3CCOCC3)c(=O)[nH]c2=O)cc1
Quantity Name: inhibition
Unit Descriptor: %
Quantitative Result: 36.9
--
Molecule: CC1(C)CC(n2[nH]c(=O)c3c2NC(=O)CSC3c2ccccc2)CCO1 (stereo unspecified)
Quantity Name: inhibition
Unit Descriptor: %
Quantitative Result: -152
--
Molecule: CC(=C1C(=O)c2ccccc2C1=O)N1CCN(CCN=Cc2c(O)n(C)c(=O)n(C)c2=O)CC1
Quantity Name: inhibition
Unit Descriptor: %
Quantitative Result: -90.4
--
Molecule: Cn1c(=O)cc(OCC(=O)N2CCN(C3CCCCC3)CC2)c2ccccc21
Quantity Name: inhibition
Unit Descriptor: %
Quantitative Result: -119
--
Molecule: CCOC(=O)C1=C(C)OC(N)=C(C(=O)OCC)[C@@]12C(=O)N(CC(N)=O)c1ccccc12
Quantity Name: inhibition
Unit Descriptor: %
Quantitative Result: -219
--
Molecule: Clc1ccc(COC(Cn2ccnc2)c2ccc(Cl)cc2Cl)c(Cl)c1 (stereo unspecified)
Quantity Name: inhibition
Unit Descriptor: %
Quantitative Result: -73.1
--
Molecule: O=c1[nH]c2ccccc2n1C1CCN(CCCC(c2ccc(F)cc2)c2ccc(F)cc2)CC1
Quantity Name: inhibition
Unit Descriptor: %
Quantitative Result: -26.6
--
Molecule: CCCCCCC(N)CC(=O)O (stereo unspecified)
Quantity Name: inhibition
Unit Descriptor: %
Quantitative Result: 42.8
--
Molecule: CCCNC(=O)c1c(N)n(Cc2ccc3c(c2)OCO3)c2nc3ccccc3nc12
Quantity Name: inhibition
Unit Descriptor: %
Quantitative Result: -9.2
--
Molecule: CCC(C(=O)N1CCC2(CC1)OCCO2)c1ccccc1 (stereo unspecified)
Quantity Name: inhibition
Unit Descriptor: %
Quantitative Result: -81.6
--
Molecule: O=c1[nH]c(O)c(C=NC2CCN(Cc3ccccc3)CC2)c(=O)[nH]1
Quantity Name: inhibition
Unit Descriptor: %
Quantitative Result: -125
--
Molecule: C=CCC1(CN2CCCCCC2=O)C(=O)NC(=O)NC1=O
Quantity Name: inhibition
Unit Descriptor: %
Quantitative Result: -118
--
Molecule: O=C(c1ccc(CS(=O)(=O)c2ccccc2)o1)N1CCC2(CC1)OCCO2
Quantity Name: inhibition
Unit Descriptor: %
Quantitative Result: -80.2
--
Molecule: O=c1[nH]c(=O)n(CCc2ccc(F)cc2)c(O)c1C=NCCCn1ccnc1
Quantity Name: inhibition
Unit Descriptor: %
Quantitative Result: 2.2
--
Molecule: CN(C)[C@@H]1C(=O)C(C(N)=O)=C(O)[C@@]2(O)C(=O)C3=C(O)c4c(O)cccc4[C@@](C)(O)[C@H]3[C@H](O)[C@@H]12
Quantity Name: inhibition
Unit Descriptor: %
Quantitative Result: -42.6
--
Molecule: CC(C)(C)C(O)C(Oc1ccc(Cl)cc1)n1cncn1 (stereo unspecified)
Quantity Name: inhibition
Unit Descriptor: %
Quantitative Result: -5.1
--
Molecule: COc1ccccc1OCCCn1cc(C(=O)c2ccco2)c2ccccc21
Quantity Name: inhibition
Unit Descriptor: %
Quantitative Result: -29.4
--
Molecule: O=C(CCCN1CCC2(CC1)C(=O)NCN2c1ccccc1)c1ccc(F)cc1
Quantity Name: inhibition
Unit Descriptor: %
Quantitative Result: 3.3
--
Molecule: O=C1C2CCCN2C(c2ccc(Cl)c(Cl)c2)N1c1ccccn1 (stereo unspecified)
Quantity Name: inhibition
Unit Descriptor: %
Quantitative Result: 17.4
--
Molecule: Cc1cccc(C2=NCC(=O)N(CC(=O)NCc3ccco3)c3sc4c(c32)CCCC4)c1
Quantity Name: inhibition
Unit Descriptor: %
Quantitative Result: -48.4

----------
assay: TLR3 IRF3 reporter activation blockers – cell-based, poly I:C stimulus, luciferase, 10K MLSCN set, primary screen (AID 602277); conditions: HEK293-TLR3 RL24 IRF3 luciferase reporter, at 10 µM, hits give high values

Compound: COc1ccc(OC)c(N2C(=O)NC(=O)C(CCc3ccncc3)(CCc3ccncc3)C2=O)c1
Unit Descriptor: %
inhibition: 12
//
Compound: COc1ccccc1OCCCn1cc(C(=O)c2ccco2)c2ccccc21
Unit Descriptor: %
inhibition: -81.2
//
Compound: O=C(c1ccc2nc3ccc(Cl)cc3c(=O)n2c1)N1CCC2(CC1)OCCO2
Unit Descriptor: %
inhibition: -12
//
Compound: CCCCOc1ccc(CN2CCN(CCO)CC2)cc1
Unit Descriptor: %
inhibition: 10.1
//
Compound: Cc1oc2ccc(OC(=O)N(C)C)cc2c1C(=O)OC(C)C
Unit Descriptor: %
inhibition: -11.8
//
Compound: COc1ccc(CC2C(=O)NC(=O)NC2=O)c(OC)c1
Unit Descriptor: %
inhibition: -0.414
//
Compound: O=C(CN1C(=O)CN=C(c2ccccc2)c2ccccc21)NCc1ccco1
Unit Descriptor: %
inhibition: -12.1
//
Compound: Cc1ccc(OCC(=O)NCCN2CCN(C(=O)COc3ccc(C)cc3)CC2)cc1
Unit Descriptor: %
inhibition: -18.3
//
Compound: CCOC(=O)C1=C(N)OC(C)=C(C(=O)OCCOC)C12C(=O)Nc1ccccc12 (stereo not drawn)
Unit Descriptor: %
inhibition: 32
//
Compound: Cc1ccc(CS(=O)(=O)CCC(=O)N2CCC3(CC2)OCCO3)cc1
Unit Descriptor: %
inhibition: 16.9
//
Compound: CC(=O)C1C(=O)NC23CCCCC2C1c1ccccc1O3 (stereo not drawn)
Unit Descriptor: %
inhibition: 14.8
//
Compound: O=C(O)c1nonc1-c1nonc1C(=O)O
Unit Descriptor: %
inhibition: 15.2
//
Compound: CCn1c(C)c(C(=O)O)c2cc(OC)ccc21
Unit Descriptor: %
inhibition: 22.2
//
Compound: CCOc1ccc(-n2c(O)c(C=NCCN3CCNCC3)c(=O)[nH]c2=O)cc1
Unit Descriptor: %
inhibition: 22.5
//
Compound: CCCCn1c(O)c(C(C)=NCCc2ccccc2)c(=O)[nH]c1=O
Unit Descriptor: %
inhibition: -8.74
//
Compound: Cc1ccc(C2SCC(=O)Nc3c2c(=O)[nH]n3C2CCOC(C)(C)C2)cc1 (stereo not drawn)
Unit Descriptor: %
inhibition: 29.8
//
Compound: O=C(NC1(C(F)(F)F)Oc2ccc(Cl)cc2O1)N1CCC2(CC1)OCCO2 (stereo not drawn)
Unit Descriptor: %
inhibition: 38.5
//
Compound: Cc1ccc(O)c(CN2CCN(c3ccccc3)CC2)c1
Unit Descriptor: %
inhibition: 15.6
//
Compound: C[C@@]1(CO)[C@H](O)CC[C@@]2(C)[C@H]1CC[C@H]1C[C@@H]3C[C@@]12CC[C@]3(O)CO
Unit Descriptor: %
inhibition: 49.2
//
Compound: CCC(C(=O)N1CCC2(CC1)OCCO2)c1ccccc1 (stereo not drawn)
Unit Descriptor: %
inhibition: 7.25
//
Compound: CC(C)OCCCNC(=O)c1c(N)n(Cc2cccs2)c2nc3ccccc3nc12
Unit Descriptor: %
inhibition: 37.4
//
Compound: Clc1ccc(COC(Cn2ccnc2)c2ccc(Cl)cc2Cl)cc1 (stereo not drawn)
Unit Descriptor: %
inhibition: 32.2
//
Compound: Cc1ccc(C(=O)C2CN3CCC2CC3)cc1 (stereo not drawn)
Unit Descriptor: %
inhibition: 43.4

----------
target: Voltage-gated potassium channel subunit beta-2 (Rattus norvegicus); experiment: inhibitors of rat Kvbeta2 reductase activity – biochemical, NADPH fluorescence, primary screen (AID 622); details: recombinant KvBeta, 4-cyanobenzaldehyde reduction, at 10 µM, hits give high values;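 also: slope of raw intensity against log time taken from 70 to 1610 s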
Known fluorescence slope of a selection of compounds

Compound: O=c1[nH]c(=O)n(Cc2ccccc2)c(O)c1C=NCCCO
fluorescence slope: -0.52

Compound: c1cncc(CNC2=NCCCCC2)c1
fluorescence slope: -0.469

Compound: O=C(CN1CCN(CCO)CC1)Nc1ccc(Cl)cc1C(=O)c1ccccc1
fluorescence slope: -0.465

Compound: COc1ccc(C(=O)N2CCCC2=O)cc1
fluorescence slope: -0.52

Compound: O=C(C(Cc1ccccc1)NS(=O)(=O)c1ccc(F)cc1)N1CCC2(CC1)OCCO2 (configuration not stated)
fluorescence slope: -0.437

Compound: C[C@]12CCC(=O)C=C1CC[C@@H]1[C@@H]2CC[C@]2(C)C(=O)CC[C@@H]12
fluorescence slope: -0.41

Compound: CCN1c2nc3c(C)cccn3c(=O)c2CC2(C(=O)N(C)C(=O)N(C)C2=O)C1C (configuration not stated)
fluorescence slope: -0.477

Compound: CN(C)CCc1nn[nH]n1
fluorescence slope: -0.47

Compound: CC(C)C(=O)c1cn(Cc2ccccc2C#N)c2ccccc12
fluorescence slope: -0.376

Compound: CCCCC1(CN2CCCC2=O)C(=O)NC(=O)NC1=O
fluorescence slope: -0.467

Compound: Cc1ccc(S(=O)(=O)Cc2ccc(C(=O)N3CCC4(CC3)OCCO4)o2)cc1
fluorescence slope: -0.432

Compound: CCOCCN1CCC(OC(C)=O)C(C)C1 (configuration not stated)
fluorescence slope: -0.51
